kcat values by entry
B1: glmS ribozyme (parent)
chain: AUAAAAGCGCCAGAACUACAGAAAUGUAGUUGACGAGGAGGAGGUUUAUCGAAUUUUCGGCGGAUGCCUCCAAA

- Variants of: B1
- measurement_protocol: kcat; higher = faster cleavage; RNA array
- experimental_parameters: with glucosamine-6-phosphate
Fewer inactive variants are shown than the library holds.

Use these answered entries as a reference point.
| sequence_input | kcat |
| --- | --- |
| AUAAAAGCGCCAGAACUACAGAAAUGUAGCUGACGAGGAGGAGGUUUAUCGAAUUUUCGUCGGAUGCCUCCAAA | < 1e-05 s⁻¹ |
| AUAAAAGCGCCAGAACUACAGAAAUGUAGUUGAUGAGGAGGAGGUUUAUCGAAUUUUCGGCGCAUGCCUCCAAA | < 1e-05 s⁻¹ |

Now for another entry.
Per the records, this variant ( AUAAACGCGCCAGAACUACAGAAAUGUAGUUGACGAGGAGGAGGUUUAUCGAAUUUUCGGAGGAUGCCUCCAAA ) has kcat equal to < 1e-05 s⁻¹
